TEST_SYSTEM: His6-CRBN/DDB1 (Homo sapiens)
Sequence (Q96SW2 whole entry): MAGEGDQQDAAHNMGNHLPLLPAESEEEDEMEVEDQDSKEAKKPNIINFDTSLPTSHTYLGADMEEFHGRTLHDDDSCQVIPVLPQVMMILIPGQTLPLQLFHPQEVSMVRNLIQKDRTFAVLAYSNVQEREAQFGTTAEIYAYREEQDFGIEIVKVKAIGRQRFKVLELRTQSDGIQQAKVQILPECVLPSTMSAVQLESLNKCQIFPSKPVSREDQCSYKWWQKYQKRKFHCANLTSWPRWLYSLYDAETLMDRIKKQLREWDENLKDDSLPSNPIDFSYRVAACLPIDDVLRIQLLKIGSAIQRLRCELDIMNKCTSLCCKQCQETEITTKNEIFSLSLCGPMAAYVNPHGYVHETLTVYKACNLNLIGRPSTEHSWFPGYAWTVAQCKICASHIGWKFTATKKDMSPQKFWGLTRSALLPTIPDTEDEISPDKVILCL
Sequence (Q16531 whole entry partner): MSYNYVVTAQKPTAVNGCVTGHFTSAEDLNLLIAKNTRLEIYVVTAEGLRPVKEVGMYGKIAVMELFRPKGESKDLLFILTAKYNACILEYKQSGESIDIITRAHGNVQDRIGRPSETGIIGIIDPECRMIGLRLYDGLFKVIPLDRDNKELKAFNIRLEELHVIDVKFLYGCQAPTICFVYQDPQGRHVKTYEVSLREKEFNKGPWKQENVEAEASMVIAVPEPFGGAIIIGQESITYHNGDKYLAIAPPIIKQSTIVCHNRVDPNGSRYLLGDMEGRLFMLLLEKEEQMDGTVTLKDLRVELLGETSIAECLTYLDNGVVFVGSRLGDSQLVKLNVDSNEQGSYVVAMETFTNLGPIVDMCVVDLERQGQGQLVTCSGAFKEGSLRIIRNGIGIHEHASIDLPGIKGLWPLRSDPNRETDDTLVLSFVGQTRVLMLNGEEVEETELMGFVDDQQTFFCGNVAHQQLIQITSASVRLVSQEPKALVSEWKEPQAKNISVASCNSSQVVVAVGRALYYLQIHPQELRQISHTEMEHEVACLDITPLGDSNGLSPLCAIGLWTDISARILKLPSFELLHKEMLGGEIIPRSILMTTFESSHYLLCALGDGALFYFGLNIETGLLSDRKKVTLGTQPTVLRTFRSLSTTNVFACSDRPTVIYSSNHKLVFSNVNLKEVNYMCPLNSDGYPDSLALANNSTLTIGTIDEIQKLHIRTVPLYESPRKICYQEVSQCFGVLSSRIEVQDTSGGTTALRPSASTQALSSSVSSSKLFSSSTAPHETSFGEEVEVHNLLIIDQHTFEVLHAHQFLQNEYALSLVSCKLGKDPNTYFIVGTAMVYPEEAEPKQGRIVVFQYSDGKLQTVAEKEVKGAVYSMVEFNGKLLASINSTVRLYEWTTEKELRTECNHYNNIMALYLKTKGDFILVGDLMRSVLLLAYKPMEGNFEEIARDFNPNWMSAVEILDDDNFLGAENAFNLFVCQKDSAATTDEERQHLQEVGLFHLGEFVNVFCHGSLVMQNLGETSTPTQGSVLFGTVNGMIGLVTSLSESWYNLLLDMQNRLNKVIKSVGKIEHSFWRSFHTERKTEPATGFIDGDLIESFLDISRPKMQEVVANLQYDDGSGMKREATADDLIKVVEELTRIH
METHOD_DESCRIPTION: TR-FRET ligand displacement assay
CONDITIONS_USED: read-out: KD against His6-CRBN/DDB1 (binary); competition binding with Thal-FITC
pKd: −log10 of the molar value.
PARAMETER: pKd

{"SMILES_REPRESENTATION": "Cc1sc2c(c1C)C(c1ccc(Cl)cc1)=N[C@@H](CC(=O)NCCCCCCCCC(=O)N[C@@H](Cc1ccccc1)C(=O)N[C@H]1CC(=O)NC1=O)c1nnc(C)n1-2", "OBSERVED": "> 7.00"}
